Consider the following compounds; for each one, report its ED50.
# System: Rattus norvegicus
# PROCEDURE_DETAILS: Antiinflammatory activity in po dosed rat assessed as inhibition of carrageenan-induced paw edema preincubated for 1 hr followed by carrageenan challenge relative to control
# Format: functional
Use mg/kg as the unit, but write only the number.

[in] For the compound COc1ccc2c(c1)c(CC(=O)O)c(C)n2C(=O)c1ccc(Cl)cc1 [INDOMETHACIN] , give its measured ED50 value.
[out] 3.8

[in] Please list ED50 recorded for the compound CCCCC1C(=O)N(c2ccccc2)N(c2ccccc2)C1=O [PHENYLBUTAZONE]
[out] 78

[in] Respond only with ED50 recorded for O=C(O)C1CCc2c(cnn2-c2ccccc2)C1 (stereo not given)
[out] 3.5

[in] Complete the entry with ED50 for O=C(O)C1CCc2c(cnn2-c2ccc(Cl)cc2)C1 (stereo not given)
[out] 17

[in] Give a short answer stating reported ED50 for O=C(O)c1ccccc1Nc1cccc(C(F)(F)F)c1 [FLUFENAMIC ACID] .
[out] 20

Data origin: ChEMBL document CHEMBL3228037
